- measurement.target: T1, recombinant Fc-tag-fused human Notch-1 extracellular domain (Homo sapiens, UniProt P46531)
- T1 construct: Notch-1, human, extracellular domain; No catalogue number and no residue limits are printed; also called N1; source: bought: R&D Systems
- T1 sequence (P46531 19-1735): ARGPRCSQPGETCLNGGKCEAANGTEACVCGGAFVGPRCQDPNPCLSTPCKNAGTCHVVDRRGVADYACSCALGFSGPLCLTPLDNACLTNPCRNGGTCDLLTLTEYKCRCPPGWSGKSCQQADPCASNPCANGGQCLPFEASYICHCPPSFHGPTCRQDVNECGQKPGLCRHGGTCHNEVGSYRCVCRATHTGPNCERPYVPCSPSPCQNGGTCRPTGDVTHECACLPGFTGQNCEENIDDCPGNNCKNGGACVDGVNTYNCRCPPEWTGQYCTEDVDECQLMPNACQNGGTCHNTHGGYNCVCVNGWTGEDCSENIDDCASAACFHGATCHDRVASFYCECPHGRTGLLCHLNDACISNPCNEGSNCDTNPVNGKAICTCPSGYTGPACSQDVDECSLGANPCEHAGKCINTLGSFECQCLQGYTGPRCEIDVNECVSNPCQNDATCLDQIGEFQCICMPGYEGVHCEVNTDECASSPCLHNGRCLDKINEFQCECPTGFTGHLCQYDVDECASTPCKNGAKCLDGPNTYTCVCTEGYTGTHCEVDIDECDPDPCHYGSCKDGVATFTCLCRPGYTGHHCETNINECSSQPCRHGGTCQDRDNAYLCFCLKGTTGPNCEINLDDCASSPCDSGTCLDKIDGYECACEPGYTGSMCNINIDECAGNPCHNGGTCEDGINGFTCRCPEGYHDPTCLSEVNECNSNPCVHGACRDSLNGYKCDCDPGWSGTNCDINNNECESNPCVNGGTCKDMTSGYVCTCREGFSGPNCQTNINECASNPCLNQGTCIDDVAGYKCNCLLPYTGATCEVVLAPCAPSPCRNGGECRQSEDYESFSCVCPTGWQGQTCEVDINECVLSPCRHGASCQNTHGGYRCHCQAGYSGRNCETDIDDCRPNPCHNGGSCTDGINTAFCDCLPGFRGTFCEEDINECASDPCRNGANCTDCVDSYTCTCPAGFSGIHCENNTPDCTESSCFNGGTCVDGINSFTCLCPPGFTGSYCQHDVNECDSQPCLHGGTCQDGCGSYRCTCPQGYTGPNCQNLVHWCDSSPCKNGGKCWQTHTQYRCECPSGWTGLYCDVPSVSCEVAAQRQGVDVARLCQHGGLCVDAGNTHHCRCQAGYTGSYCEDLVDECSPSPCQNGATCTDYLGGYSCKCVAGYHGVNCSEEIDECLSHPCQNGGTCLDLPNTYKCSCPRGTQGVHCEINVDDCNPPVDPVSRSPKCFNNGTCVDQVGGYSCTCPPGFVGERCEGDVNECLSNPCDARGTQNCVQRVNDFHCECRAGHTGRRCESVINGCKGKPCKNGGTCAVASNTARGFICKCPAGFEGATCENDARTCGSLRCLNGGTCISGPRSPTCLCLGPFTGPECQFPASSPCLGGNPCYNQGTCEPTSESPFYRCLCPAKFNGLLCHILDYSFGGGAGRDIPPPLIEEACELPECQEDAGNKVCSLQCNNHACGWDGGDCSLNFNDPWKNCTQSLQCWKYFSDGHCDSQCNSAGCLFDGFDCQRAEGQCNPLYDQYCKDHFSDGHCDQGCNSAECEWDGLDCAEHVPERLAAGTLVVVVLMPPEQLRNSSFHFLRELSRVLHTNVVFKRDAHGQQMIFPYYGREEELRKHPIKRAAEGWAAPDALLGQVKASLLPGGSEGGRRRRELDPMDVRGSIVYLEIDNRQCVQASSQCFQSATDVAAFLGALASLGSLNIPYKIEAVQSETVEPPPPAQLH
- method.summary: ELISA; multi-point Fab-ELISA: target immobilised at 5 ug/ml on MaxiSorp plates; purified Fab 0.01 nM-1 uM in PT for 30 min; detected with HRP-conjugated anti-HIS antibody; EC50 from a one-site specific-binding fit
- run.conditions: both partners purified
result.type: pEC50
One number for each entry, as −log10 of the molar value.

Below are some binders; for each one, tell me its pEC50.
1. Fab N1/ModF/5 (purified soluble Fab) (Fab, V domains shown, light chain on the modified trastuzumab framework of the Modified-F library (template: anti-MBP Fab phagemid of Library-F, Persson et al., 2013); CDRs L1 and L2 fixed; Fab heavy chain on the modified trastuzumab framework of the Modified-F library; long CDRH3; The Fab is detected by an anti-HIS antibody; source: E. coli BL21, purified (Protein-L resin)) VH: EVQLVESGGGLVQPGGSLRLSCAASGFNISSSYMHWVRQAPGKGLEWVASIYSYSGSTYYADSVKGRFTISADTSKNTAYLQMNSLRAEDTAVYYCARSGYSGVSGSVYSYWPFYGLDYWGQGTLVTVSS VL: DIQMTQSPSSLSASVGDRVTITCRASQSVSSAVAWYQQKPGKAPKLLIYSASSLYSGVPSRFSGSRSGTDFTLTISSLQPEDFATYYCQQGPYHGYSLITFGQGTKVEIK
2. Fab N1/ModF/2 (purified soluble Fab) (Fab, V domains shown, light chain on the modified trastuzumab framework of the Modified-F library (template: anti-MBP Fab phagemid of Library-F, Persson et al., 2013); CDRs L1 and L2 fixed; Fab heavy chain on the modified trastuzumab framework of the Modified-F library; long CDRH3; The Fab is detected by an anti-HIS antibody; source: E. coli BL21, purified (Protein-L resin)) VH: EVQLVESGGGLVQPGGSLRLSCAASGFNLYSSYIHWVRQAPGKGLEWVAYISPYSGSTYYADSVKGRFTISADTSKNTAYLQMNSLRAEDTAVYYCARYGYAYHPYHSGYWYGALDYWGQGTLVTVSS VL: DIQMTQSPSSLSASVGDRVTITCRASQSVSSAVAWYQQKPGKAPKLLIYSASSLYSGVPSRFSGSRSGTDFTLTISSLQPEDFATYYCQQVSAGYGPPITFGQGTKVEIK

**A:**
1. 8.62
2. 8.77
